The values you see were collected from patent US10519162B2.

# TARGET SYSTEM: human mGlu2 receptor (Homo sapiens)
# Construct: expressed in transfected cells; host or cells: CHO cells
# Sequence (Q14416 19-872): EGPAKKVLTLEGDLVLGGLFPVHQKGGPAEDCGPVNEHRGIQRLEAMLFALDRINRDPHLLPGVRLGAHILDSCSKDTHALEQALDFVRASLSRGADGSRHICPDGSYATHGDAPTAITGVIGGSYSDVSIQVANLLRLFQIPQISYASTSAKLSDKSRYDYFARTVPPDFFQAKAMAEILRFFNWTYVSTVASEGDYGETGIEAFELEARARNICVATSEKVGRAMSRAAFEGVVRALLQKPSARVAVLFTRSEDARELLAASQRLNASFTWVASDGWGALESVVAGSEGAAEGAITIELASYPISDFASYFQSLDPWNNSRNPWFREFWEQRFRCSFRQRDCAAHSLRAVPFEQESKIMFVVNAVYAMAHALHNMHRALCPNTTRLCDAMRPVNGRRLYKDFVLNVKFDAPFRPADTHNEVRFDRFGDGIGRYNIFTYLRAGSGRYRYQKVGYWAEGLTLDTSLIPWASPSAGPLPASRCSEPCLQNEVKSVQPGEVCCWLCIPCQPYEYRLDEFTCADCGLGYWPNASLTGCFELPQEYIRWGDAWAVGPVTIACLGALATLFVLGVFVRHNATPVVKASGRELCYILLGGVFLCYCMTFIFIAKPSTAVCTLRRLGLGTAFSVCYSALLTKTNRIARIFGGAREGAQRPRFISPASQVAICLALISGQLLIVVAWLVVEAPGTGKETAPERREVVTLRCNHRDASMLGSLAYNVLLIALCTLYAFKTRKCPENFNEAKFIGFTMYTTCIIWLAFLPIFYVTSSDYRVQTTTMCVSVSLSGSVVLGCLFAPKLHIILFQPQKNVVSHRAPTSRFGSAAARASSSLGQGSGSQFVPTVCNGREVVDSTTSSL
# TEST: [35S]GTPγS binding assay (mGluR2 negative allosteric modulation, glutamate ~EC80 60 μM)
# Type: biochemical
# EXPERIMENTAL CONTEXT: maximal % inhibition relative to the control glutamate response (EC80 glutamate); read-out: GTPγS-hmGluR2 anGT Emax
METRIC NAME: Emax (%)
Report as a plain number; the unit % is understood.

Use these answered entries as a reference point.
Cc1cc(C(=O)Nc2cnn3c2C(=O)N(c2ccc(C(F)(F)F)cc2)C[C@@H]3C)cc(N)n1 [Co. No. 162] = 107
Cc1cc(C(=O)Nc2cnn3c2C(=O)N(c2ccc(C(F)(F)F)c(F)c2)C[C@@H]3C)ccn1 [Co. No. 130] = 107
CC(=O)Nc1ccc(C(=O)Nc2cnn3c2C(=O)N(c2ccc(C(F)(F)F)cc2)C[C@@H]3C)cn1 [Co. No. 159] = 106
C[C@H]1CN(c2ccc(C(F)(F)F)cc2)C(=O)c2c(NC(=O)c3c[nH]cn3)cnn21 [Co. No. 83] = 101
Cc1cccc(C(=O)Nc2cnn3c2C(=O)N(c2ccc(C(F)(F)F)cc2)C[C@@H]3C)n1 [Co. No. 34] = 116

## Input Which measured Emax value corresponds to COc1cncc(C(=O)Nc2cnn3c2C(=O)N(c2ccc(C(F)(F)F)c(C)c2)C[C@@H]3C)c1 [Co. No. 151] ?
## Output 106

## Input Also COc1nc(N2C[C@H](C)n3ncc(NC(=O)c4ccccc4)c3C2=O)ccc1Cl [Co. No. 76] ?
## Output 106

## Input Also Cc1nc(C(=O)Nc2cnn3c2C(=O)N(c2ccc(C(F)(F)F)cc2)C[C@@H]3C)co1 [Co. No. 81] , if possible.
## Output 103
